Data origin: PubChem BioAssay AID1159580

I'd appreciate it if you could supply normalized growth values for the items below.
Test: chemical genetic growth profiling, strain panel (AID 1159580);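 note: tested at 20 µM; growth read once vehicle control cultures reached saturation at 30 °C; 1 = growth at the plate median or of vehicle wells; lower values mean less growth of the strain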
Condition: S. cerevisiae deletion strains, growth OD, locus YGL086W, strain mad1, hits give low values
The whole screen tested about 5,500 compounds, of which about 2,000 (36%) were called active. About 18% were inconclusive and are not listed. The list shows a part of the results.
Give bare numbers.

Reference set (5 entries):
>  <Molecule>
C/C=C/c1ccc(OC)cc1

>  <normalized growth>
1.02

$$$$
>  <Molecule>
Cc1ccc(C(C)C)cc2c(C)ccc1-2

>  <normalized growth>
0.994

$$$$
>  <Molecule>
C=CCc1cc(OC)c2c(c1OC)OCO2

>  <normalized growth>
0.962

$$$$
>  <Molecule>
CO[C@@H]1[C@@H](O[C@@H]2O[C@H](C)[C@@H](O[C@H]3C[C@@](C)(O)[C@H](O)[C@H](C)O3)[C@H](N(C)C)[C@H]2O)[C@@H](CC=O)C[C@@H](C)[C@@H](O[C@H]2CC[C@H](N(C)C)[C@@H](C)O2)/C=C/C=C/C[C@H](C)OC(=O)C[C@H]1O

>  <normalized growth>
0.994

$$$$
>  <Molecule>
COc1ccc(/C=C/c2cc(O)cc(O[C@@H]3O[C@H](CO)[C@@H](O)[C@H](O)[C@H]3O)c2)cc1O

>  <normalized growth>
1.03

$$$$

Give one value of normalized growth per listed molecule.
1. Cc1cccc(CN2CCN(C(c3ccccc3)c3ccc(Cl)cc3)CC2)c1 (stereo not drawn)
2. COc1c(C(=O)O)ccc2c1CCC(C)(C)O2
3. CC1(C)C2CC(=O)O[C@@]3(C)C4=CC(=O)O[C@@H](c5ccoc5)[C@]4(C)CCC3[C@@]2(C)C=C[C@H]1O (stereo partly drawn)

Out:
[0.832, 1, 0.988]

====

Test: chemical genetic growth profiling, strain panel (AID 1159580);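 note: tested at 20 µM; growth read once vehicle control cultures reached saturation at 30 °C; 1 = growth at the plate median or of vehicle wells; lower values mean less growth of the strain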
Condition: S. cerevisiae deletion strains, growth OD, locus YPR119W, strain clb2
Among all 5,500 compounds or so, about 2,000 (36%) were called active. About 18% were inconclusive and are not listed. Rule as the data show it: active = normalized growth mostly below about 0.91 (no sharp cut-off); inconclusive = no clear call, values can overlap the other calls; inactive = mostly above about 0.92. The list shows a part of the results.
Tick one outcome: active, inactive

Example entries begin here.
>  <Molecule>
CC1=C(/C=C/C(C)=C/C=C/C(C)=C\C(=O)O)C(C)(C)CCC1

>  <Class Assignment>
inactive

$$$$
>  <Molecule>
COc1ccc2c(c1O)-c1c(OC)c(OC)cc3c1[C@H](C2)N(C)CC3

>  <Class Assignment>
inactive

$$$$
>  <Molecule>
CN(C)CCCO[C@H]1[C@@H](C(O)CO)OC2OC(C)(C)O[C@@H]21 (stereo not given in full)

>  <Class Assignment>
inactive

$$$$
>  <Molecule>
COS(C)(=O)=O

>  <Class Assignment>
inactive

$$$$
>  <Molecule>
NCc1ccc(S(N)(=O)=O)cc1

>  <Class Assignment>
inactive

$$$$
>  <Molecule>
C[C@@H]1C[C@@H]([C@H](O)CC2CC(=O)NC(=O)C2)C(=O)[C@@H](C)C1

>  <Class Assignment>
active

$$$$

In: Entry CC1CC2C(C(O)CC3(C)C2CCC3(O)C(=O)COC(=O)CCC(=O)O)C2(C)C=CC(=O)C=C12 (stereo not given) : call = ?
Out: inactive

In: Entry CO[C@@H]1[C@@H](O[C@@H]2O[C@H](C)[C@@H](O[C@H]3C[C@@](C)(O)[C@H](O)[C@H](C)O3)[C@H](N(C)C)[C@H]2O)[C@@H](CC=O)C[C@@H](C)[C@@H](O[C@H]2CC[C@H](N(C)C)[C@@H](C)O2)/C=C/C=C/C[C@H](C)OC(=O)C[C@H]1O : call = ?
Out: inactive

In: Entry OCC(S)CS (stereo not given) : call = ?
Out: inactive

In: Entry O=c1cccc2n1C[C@H]1CNCC2C1 : call = ?
Out: inactive

In: Entry CC1(C)CC2C1CCC1(C)OC2(C)CCC1O (stereo not given) : call = ?
Out: inactive

In: Entry CCOC(=O)C1=C[C@]2(CC)CCCN3CCc4c(n1c1ccccc41)[C@@H]32 : call = ?
Out: inactive

In: Entry CC[C@@H](C(=O)O)[C@@H]1O[C@@H]([C@@H](C)[C@H](O)[C@H](C)C(=O)[C@H](CC)[C@H]2O[C@]3(C=C[C@@H](O)[C@]4(CC[C@@](C)(C5CC[C@](O)(CC)[C@H](C)O5)O4)O3)[C@H](C)C[C@@H]2C)[C@@H](C)C[C@H]1C (stereo not given in full) : call = ?
Out: active
